Provide the reported AUC(0-t) of each item.
# test method notes: AUC (0 to t) in rat at 20 mg/kg, po
# Type: ADME, organism-based
# Parameters: dose 20 mg/kg, route oral
# measurement conditions: plasma
Just the number please, in µg·h/mL, no unit attached.

What does the record list as AUC(0-t) for `Cc1c(-c2ccc(-c3ccc(OC(F)(F)F)cc3)nc2)[nH]c2ccccc2c1=O` ? 69.3

// repeat for `Cc1c(-c2ccc(-c3ccc(OC(F)(F)F)cc3)nc2)nc2ccccc2c1OC(=O)N1CCOCC1` and report 167

----------
# Tested on: HepG2
# test method notes: Cytotoxicity against human HepG2 cells
# Type: cell-based
metric name: CC50

What does the record list as CC50 for `Cc1c(-c2ccc(-c3ccc(OC(F)(F)F)cc3)nc2)[nH]c2ccccc2c1=O` ? > 50 µM
